Data origin: patent US5446147A

# target-desc: dopamine D2 receptor (Rat Striatal Membranes) (Rattus norvegicus, UniProt P61169)
# Construct: Rat tissue homogenates were prepared as described previously; from tissue; host or cells: rat striatal membranes (tissue homogenate)
# Sequence (P61169 whole entry): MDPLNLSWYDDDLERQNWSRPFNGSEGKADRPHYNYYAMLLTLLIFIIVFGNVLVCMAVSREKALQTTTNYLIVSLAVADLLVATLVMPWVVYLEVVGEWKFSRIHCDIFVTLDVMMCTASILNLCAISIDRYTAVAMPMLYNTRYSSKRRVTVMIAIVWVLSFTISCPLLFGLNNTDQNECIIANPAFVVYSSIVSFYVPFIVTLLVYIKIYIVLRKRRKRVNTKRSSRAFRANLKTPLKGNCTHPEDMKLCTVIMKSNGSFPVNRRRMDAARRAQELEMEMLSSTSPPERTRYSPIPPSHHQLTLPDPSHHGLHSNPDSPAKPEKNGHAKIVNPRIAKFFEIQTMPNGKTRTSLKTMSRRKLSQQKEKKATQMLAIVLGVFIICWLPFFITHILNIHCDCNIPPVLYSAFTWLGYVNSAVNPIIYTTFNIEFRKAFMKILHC
# assay-details: Competition for ^125 I-FIDA-1 binding to rat striatal membranes
# measurement-setup: rat striatal membranes, 15 min at 37° C., nonspecific binding with 10 μM (+)butaclamol; read-out: Ki, inhibition constant on ^125 I-FIDA-1 binding
measured-property: Ki (nM)

COc1cccc(OC)c1OCCNCC1COc2ccccc2O1 (stereo not shown) [WB 4101]    33.1

###

# target-desc: dopamine D2 receptor (Rat Striatal Membranes) (Rattus norvegicus, UniProt P61169)
# Construct: Rat tissue homogenates were prepared as described previously; from tissue; host or cells: rat striatal membranes (tissue homogenate)
# assay-details: Competition for ^125 I-FIDA-2 binding to rat striatal membranes
# measurement-setup: rat striatal membranes, 15 min at 37° C., nonspecific binding with 10 μM (+)butaclamol; read-out: Ki, inhibition constant on ^125 I-FIDA-2 binding
pKi: −log10 of the molar value.
Recorded pKi, one value per entry.
measured-property: pKi

COc1cccc(OC)c1OCCNCC1COc2ccccc2O1 (centres unmarked) [WB 4101]    7.63
COC(=O)[C@@H]1[C@H]2C[C@H]3c4[nH]c5ccccc5c4CCN3C[C@@H]2CC[C@@H]1O [yohimbine]    6.30

###

# Tested on: dopamine receptors (striatum)
# assay-details: Regional brain distribution in rats (uptake ratio of region to cerebellum)
# Assay type: in vivo, rat
# measurement-setup: iv, 2 min
measured-property: ST/CB ratio

COc1cc([123I])cc(C(=O)NC[C@H]2CCCN2Cc2ccc(F)cc2)c1OC [[^123 I]FIDA2]    1.2

###

# Test system: dopamine receptors (striatum)
# assay-details: Regional brain distribution in rats (uptake ratio of region to cerebellum)
# Type: in vivo, rat
# measurement-setup: iv, 120 min
measured-property: ST/CB ratio

COc1cc([123I])cc(C(=O)NC[C@H]2CCCN2Cc2ccc(F)cc2)c1OC [[^123 I]FIDA2]    25.2

###

# target-desc: dopamine D2 receptor (Rat Striatal Membranes) (Rattus norvegicus, UniProt P61169)
# Construct: Rat tissue homogenates were prepared as described previously; from tissue; host or cells: rat striatal membranes (tissue homogenate)
# assay-details: Competition for ^125 I-FIDA-2 binding to rat striatal membranes
pKi: −log10 of the molar value.
measured-property: pKi

CN1[C@@H]2CC[C@H]1C[C@@H](OC(=O)C(CO)c1ccccc1)C2 (stereo partly shown)    < 5.00
